Mean Fluorescence Intensity (MFI), uptake 37C-4C, at 37 nM reference
Target: T1, human sortilin stably expressed on HEK 293 cells (HEK-SORT1 cells) (human, UniProt Q99523 78-831)
T1 sequence (looked up): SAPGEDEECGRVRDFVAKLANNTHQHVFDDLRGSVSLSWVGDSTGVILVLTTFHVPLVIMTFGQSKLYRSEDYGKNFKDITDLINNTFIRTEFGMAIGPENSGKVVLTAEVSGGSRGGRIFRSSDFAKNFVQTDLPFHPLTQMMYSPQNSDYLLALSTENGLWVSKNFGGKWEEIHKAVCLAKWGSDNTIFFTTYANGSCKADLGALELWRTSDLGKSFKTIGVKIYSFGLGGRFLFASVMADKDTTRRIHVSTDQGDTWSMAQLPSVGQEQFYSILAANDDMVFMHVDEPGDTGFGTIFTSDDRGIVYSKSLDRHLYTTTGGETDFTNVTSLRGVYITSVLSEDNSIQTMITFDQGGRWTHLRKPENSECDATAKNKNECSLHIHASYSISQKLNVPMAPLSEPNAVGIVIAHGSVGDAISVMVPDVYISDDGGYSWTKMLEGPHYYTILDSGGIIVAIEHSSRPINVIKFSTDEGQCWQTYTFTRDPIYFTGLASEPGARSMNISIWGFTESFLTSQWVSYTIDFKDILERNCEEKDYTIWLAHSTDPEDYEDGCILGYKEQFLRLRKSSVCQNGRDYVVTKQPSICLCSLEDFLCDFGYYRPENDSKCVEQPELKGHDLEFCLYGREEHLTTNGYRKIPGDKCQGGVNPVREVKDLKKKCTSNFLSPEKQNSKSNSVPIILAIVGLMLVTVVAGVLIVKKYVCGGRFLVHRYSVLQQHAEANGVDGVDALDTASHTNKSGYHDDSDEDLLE
Assay: cell-based or functional assay
Ends that are not written are not given here.
Measurement Label: Mean Fluorescence Intensity (MFI), uptake 37C-4C, at 37 nM

>>> quantitative_readout("LYENXPRRPYIL (not fully specified; position 1 is SO5P (5-oxoproline); internal lysine (LYEN-K) side chain azido-acetyl joined via triazolo-BCN carbamate / 6-aminohexanol linker to 5' end of … (SEQ ID NO 2, uniform MOE, phosphodiester, 3'-Cy3))")
53
>>> quantitative_readout("XLYENKPRRPYIL (not fully specified; position 1 printed dK (X = 2-azido-acetyl lysine); side chain joined via triazolo-BCN carbamate / 6-aminohexanol linker to the 5' end of oligonucleotide … (SEQ ID NO 2, uniform MOE, phosphodiester, 3'-Cy3))")
54
>>> quantitative_readout("LYENXPRRPYIL (not fully specified; position 1 is SO5P (5-oxoproline); internal lysine (LYEN-K) carries the azido-acetyl group joined to Cy3-BCN reagent (Cy3 label)) [Compound 17-AE-9199, Cy3-labeled [SO5P]LYEN[azido-acetyl-K]PRRPYIL peptide]")
378
>>> quantitative_readout("KPPPAGSSPGLYENKPRRPYIL (not fully specified (residue 1); also: Cy3 label attached by BCN click to the azide) [Compound 17-AH-1492, Cy3-labeled extended neurotensin (eNT, …)]")
390
>>> quantitative_readout("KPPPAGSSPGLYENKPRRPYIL (not fully specified (residue 1); also: X side chain clicked via BCN (triazole) and 6-aminohexanol linker to 5' end of oligonucleotide CCAGGCTGGTTATGACTCAG (MOE, 3'-Cy3))")
119

From: patent US20230338555A1
